- System: Echinochloa crus-galli (ECHCG)
- protocol-notes: Post-emergence herbicidal activity, Echinochloa crus-galli
- Type: in vivo
- protocol-conditions: 1000 g/ha, evaluated after 13 days
property-measured: Control of ECHCG after post-emergence application (score 0-5)
Respond numerically, and do not add a unit to the figure.

## Task Request the reported Control of ECHCG after post-emergence application (score 0-5) associated with `COc1nc(-c2cncc(F)c2)ccc1N(C(=O)OC(C)(C)C)C(=O)OC(C)(C)C`
## Result 1

## Task Request the reported Control of ECHCG after post-emergence application (score 0-5) associated with `O=C(NCc1ccc(Cl)cc1)Nc1ccc(-c2cncc(F)c2)nc1C(F)(F)F`
## Result 2

## Task Request the reported Control of ECHCG after post-emergence application (score 0-5) associated with `CN1COCN(c2ccc(-c3cncc(F)c3)nc2C(F)(F)F)C1=O`
## Result 3

## Task Request the reported Control of ECHCG after post-emergence application (score 0-5) associated with `CC(C)(C)OC(=O)N(Cc1ccc(F)cc1F)c1ccc(-c2cncc(F)c2)nc1C(F)(F)F`
## Result 2

## Task Request the reported Control of ECHCG after post-emergence application (score 0-5) associated with `O=C(Nc1ccccc1)Nc1ccc(-c2cncc(F)c2)nc1C(F)(F)F`
## Result 3

###

For each record, write down the corresponding Control of AVEFA after pre-emergence application (score 0-5).
- Test system: Avena fatua (AVEFA)
- protocol-notes: Pre-emergence herbicidal activity, Avena fatua
- Format: in vivo
- Design: key: 5=total damage to plant; 0=no damage to plant
- protocol-conditions: 250 g/ha, evaluated after 13 days
Respond numerically, and do not add a unit to the figure.

## Task Request the reported Control of AVEFA after pre-emergence application (score 0-5) associated with `O=C(NCC1CC1)Nc1ccc(-c2cncc(F)c2)nc1C(F)(F)F`
## Result 0

## Task Request the reported Control of AVEFA after pre-emergence application (score 0-5) associated with `Cc1cnc(CNC(=O)Nc2ccc(-c3cncc(F)c3)nc2C(F)(F)F)cn1`
## Result 1

## Task Request the reported Control of AVEFA after pre-emergence application (score 0-5) associated with `CSCCCNC(=O)Nc1ccc(-c2cncc(F)c2)nc1C(F)(F)F`
## Result 1

## Task Request the reported Control of AVEFA after pre-emergence application (score 0-5) associated with `O=C(Nc1ccc(-c2cncc(F)c2)nc1C(F)(F)F)OC1CCOCC1`
## Result 2

## Task Request the reported Control of AVEFA after pre-emergence application (score 0-5) associated with `CC(C)CNC(=O)Nc1ccc(-c2cncc(F)c2)nc1C(F)(F)F`
## Result 1

## Task Request the reported Control of AVEFA after pre-emergence application (score 0-5) associated with `O=C(NCc1cccnc1)Nc1ccc(-c2cncc(F)c2)nc1C(F)(F)F`
## Result 0

###

- Test system: Echinochloa crus-galli (ECHCG)
- protocol-notes: Pre-emergence herbicidal activity, Echinochloa crus-galli
- Type: in vivo
- protocol-conditions: 250 g/ha, evaluated after 13 days
property-measured: Control of ECHCG after pre-emergence application (score 0-5)
Respond numerically, and do not add a unit to the figure.

## Task Test system Echinochloa crus-galli (ECHCG); read-out Control of ECHCG after pre-emergence application (score 0-5); what value for `CC(C)(C)COC(=O)Nc1ccc(-c2cncc(F)c2)nc1C(F)(F)F` ?
## Result 2

## Task Test system Echinochloa crus-galli (ECHCG); read-out Control of ECHCG after pre-emergence application (score 0-5); what value for `O=C(NCc1cccnc1)Nc1ccc(-c2cncc(F)c2)nc1C(F)(F)F` ?
## Result 0

## Task Test system Echinochloa crus-galli (ECHCG); read-out Control of ECHCG after pre-emergence application (score 0-5); what value for `CCCCN(C)C(=O)Nc1ccc(-c2cncc(F)c2)nc1C(F)(F)F` ?
## Result 1

## Task Test system Echinochloa crus-galli (ECHCG); read-out Control of ECHCG after pre-emergence application (score 0-5); what value for `CSCCCNC(=O)Nc1ccc(-c2cncc(F)c2)nc1C(F)(F)F` ?
## Result 1

## Task Test system Echinochloa crus-galli (ECHCG); read-out Control of ECHCG after pre-emergence application (score 0-5); what value for `CC(C)(C)CNC(=O)Nc1ccc(-c2cncc(F)c2)nc1C(F)(F)F` ?
## Result 3

###

- Tested on: Lolium perenne (LOLPE)
- protocol-notes: Pre-emergence herbicidal activity, Lolium perenne
- Format: in vivo
- protocol-conditions: 1000 g/ha, evaluated after 13 days
property-measured: Control of LOLPE after pre-emergence application (score 0-5)
Respond numerically, and do not add a unit to the figure.

## Task Request the reported Control of LOLPE after pre-emergence application (score 0-5) associated with O=C(Nc1ccc(-c2cncc(F)c2)nc1C(F)(F)F)N1CCSCC1 [Compound B54]
## Result 1

## Task Request the reported Control of LOLPE after pre-emergence application (score 0-5) associated with NC(=O)Nc1ccc(-c2cncc(F)c2)nc1C(F)(F)F [Compound B47]
## Result 1

## Task Request the reported Control of LOLPE after pre-emergence application (score 0-5) associated with O=C1OCCN1c1ccc(-c2cncc(F)c2)nc1C(F)(F)F [Compound B45]
## Result 0

## Task Request the reported Control of LOLPE after pre-emergence application (score 0-5) associated with CC(C)NC(=O)Nc1ccc(-c2cncnc2)nc1C(F)(F)F [Compound B44]
## Result 1

## Task Request the reported Control of LOLPE after pre-emergence application (score 0-5) associated with N#CCCOC(=O)Nc1ccc(-c2cncc(F)c2)nc1C(F)(F)F [Compound B62]
## Result 1

###

- Tested on: Echinochloa crus-galli (ECHCG)
- protocol-notes: Post-emergence herbicidal activity, Echinochloa crus-galli
- Assay type: in vivo
- protocol-conditions: 1000 g/ha, evaluated after 13 days
property-measured: Control of ECHCG after post-emergence application (score 0-5)
Respond numerically, and do not add a unit to the figure.

## Task Request the reported Control of ECHCG after post-emergence application (score 0-5) associated with `O=C(Nc1ccc(-c2cncc(F)c2)nc1C(F)(F)F)NN1CCOCC1`
## Result 4

## Task Request the reported Control of ECHCG after post-emergence application (score 0-5) associated with `CC#Cc1cncc(-c2ccc(NC(=O)OC(C)(C)C)c(C)n2)c1`
## Result 2

## Task Request the reported Control of ECHCG after post-emergence application (score 0-5) associated with `C=CCOC(=O)Nc1ccc(-c2cncc(F)c2)nc1C(F)(F)F`
## Result 3

## Task Request the reported Control of ECHCG after post-emergence application (score 0-5) associated with `CC(C)OC(=O)Nc1ccc(-c2cncc(F)c2)nc1C#N`
## Result 5

## Task Request the reported Control of ECHCG after post-emergence application (score 0-5) associated with `CN(C)C(=O)N(C)c1ccc(-c2cncc(F)c2)nc1C(F)(F)F`
## Result 4

## Task Request the reported Control of ECHCG after post-emergence application (score 0-5) associated with `O=C(Nc1ccc(-c2cncc(F)c2)nc1C(F)(F)F)N1CCOCC1`
## Result 5

## Task Request the reported Control of ECHCG after post-emergence application (score 0-5) associated with `CCCOC(=O)Nc1ccc(-c2cncc(F)c2)nc1C(F)(F)F`
## Result 5

## Task Request the reported Control of ECHCG after post-emergence application (score 0-5) associated with `CC(C)(C)OC(=O)N(CC1CC1)c1ccc(-c2cncc(F)c2)nc1C(F)(F)F`
## Result 4

## Task Request the reported Control of ECHCG after post-emergence application (score 0-5) associated with `N#CCCOC(=O)Nc1ccc(-c2cncc(F)c2)nc1C(F)(F)F`
## Result 5

###

For each record, write down the corresponding Control of ECHCG after post-emergence application (score 0-5).
- System: Echinochloa crus-galli (ECHCG)
- protocol-notes: Post-emergence herbicidal activity, Echinochloa crus-galli
- Assay type: in vivo
- protocol-conditions: 1000 g/ha, evaluated after 13 days
Respond numerically, and do not add a unit to the figure.

## Task Request the reported Control of ECHCG after post-emergence application (score 0-5) associated with `COc1nc(-c2cncc(F)c2)ccc1NC(=O)OC(C)(C)C`
## Result 2

## Task Request the reported Control of ECHCG after post-emergence application (score 0-5) associated with `CC(C)c1cc(NC(=O)Nc2ccc(-c3cncc(F)c3)nc2C(F)(F)F)on1`
## Result 1

## Task Request the reported Control of ECHCG after post-emergence application (score 0-5) associated with `CC(C)(C)OC(=O)Nc1ccc(-c2cncc(C(F)F)c2)nc1C(F)(F)F`
## Result 3

## Task Request the reported Control of ECHCG after post-emergence application (score 0-5) associated with `COC(=O)CN(C(=O)OC(C)(C)C)c1ccc(-c2cncc(F)c2)nc1C(F)(F)F`
## Result 2

## Task Request the reported Control of ECHCG after post-emergence application (score 0-5) associated with `CN(C)C(=O)Nc1ccc(-c2cncc(F)c2)nc1C(F)(F)F`
## Result 4

###

- Test system: Lolium perenne (LOLPE)
- protocol-notes: Pre-emergence herbicidal activity, Lolium perenne
- Type: in vivo
- Set-up: key: 5=total damage to plant; 0=no damage to plant
- protocol-conditions: 1000 g/ha, evaluated after 13 days
For each record, write down the corresponding Control of LOLPE after pre-emergence application (score 0-5).
Respond numerically, and do not add a unit to the figure.

## Task Request the reported Control of LOLPE after pre-emergence application (score 0-5) associated with O=C(Nc1cncnc1)Nc1ccc(-c2cncc(F)c2)nc1C(F)(F)F [Compound B70]
## Result 0

## Task Request the reported Control of LOLPE after pre-emergence application (score 0-5) associated with CC(C)(C)OC(=O)Nc1ccc(-c2cncc(OC(F)(F)F)c2)nc1C(F)(F)F [Compound B36]
## Result 0

## Task Request the reported Control of LOLPE after pre-emergence application (score 0-5) associated with CC(C)(C)OC(=O)N(Cc1ccc(F)cc1F)c1ccc(-c2cncc(F)c2)nc1C(F)(F)F [Compound B3]
## Result 0

## Task Request the reported Control of LOLPE after pre-emergence application (score 0-5) associated with C=CCN(C(=O)OC(C)(C)C)c1ccc(-c2cncnc2)nc1C(F)(F)F [Compound B35]
## Result 1

## Task Request the reported Control of LOLPE after pre-emergence application (score 0-5) associated with CC(C)NC(=O)Nc1ccc(-c2cncc(F)c2)nc1C(F)(F)F [Compound B37]
## Result 1

## Task Request the reported Control of LOLPE after pre-emergence application (score 0-5) associated with O=C(NOCC(F)F)Nc1ccc(-c2cncc(F)c2)nc1C(F)(F)F [Compound B110]
## Result 0

## Task Request the reported Control of LOLPE after pre-emergence application (score 0-5) associated with CN(C(=O)OC(C)(C)C)c1ccc(-c2cc(F)c[n+]([O-])c2)nc1C(F)(F)F [Compound B1]
## Result 1

## Task Request the reported Control of LOLPE after pre-emergence application (score 0-5) associated with CC(C)(C)OC(=O)N(CC1CC1)c1ccc(-c2cncc(F)c2)nc1C(F)(F)F [Compound B10]
## Result 1

## Task Request the reported Control of LOLPE after pre-emergence application (score 0-5) associated with CC(C)c1cc(NC(=O)Nc2ccc(-c3cncc(F)c3)nc2C(F)(F)F)on1 [Compound B40]
## Result 1

## Task Request the reported Control of LOLPE after pre-emergence application (score 0-5) associated with O=C(Nc1ccc(-c2cncc(F)c2)nc1C(F)(F)F)NC1CCCC1 [Compound B50]
## Result 1

## Task Request the reported Control of LOLPE after pre-emergence application (score 0-5) associated with O=C(Nc1ccc(-c2cncc(F)c2)nc1C(F)(F)F)OC1CCS(=O)(=O)C1 (centres unmarked) [Compound B66]
## Result 1

## Task Request the reported Control of LOLPE after pre-emergence application (score 0-5) associated with COc1nc(-c2cncc(F)c2)ccc1N(C(=O)OC(C)(C)C)C(=O)OC(C)(C)C [Compound B109]
## Result 0

## Task Request the reported Control of LOLPE after pre-emergence application (score 0-5) associated with O=C(Nc1ccc(-c2cncnc2)nc1C(F)(F)F)N1CCOCC1 [Compound B55]
## Result 0

## Task Request the reported Control of LOLPE after pre-emergence application (score 0-5) associated with COC(=O)c1nc(-c2cncc(F)c2)ccc1NC(=O)OC(C)(C)C [Compound B77]
## Result 0

## Task Request the reported Control of LOLPE after pre-emergence application (score 0-5) associated with CC(C)(C)OC(=O)Nc1ccc(-c2cncc(C(F)F)c2)nc1C(F)(F)F [Compound B5]
## Result 0

## Task Request the reported Control of LOLPE after pre-emergence application (score 0-5) associated with CC(C)(C)OC(=O)N(C(=O)OC(C)(C)C)c1ccc(-c2cncc(F)c2)nc1C#N [Compound B114]
## Result 1

## Task Request the reported Control of LOLPE after pre-emergence application (score 0-5) associated with O=C(Nc1ccc(-c2cncc(F)c2)nc1C(F)(F)F)N1CCCC1 [Compound B63]
## Result 0

## Task Request the reported Control of LOLPE after pre-emergence application (score 0-5) associated with CC(C)(C)OC(=O)Nc1ccc(-c2cncc(F)c2)nc1-c1ccccc1 [Compound B112]
## Result 0

## Task Request the reported Control of LOLPE after pre-emergence application (score 0-5) associated with CN(C(=O)N1CCOCC1)c1ccc(-c2cncc(F)c2)nc1C(F)(F)F [Compound B67]
## Result 1

## Task Request the reported Control of LOLPE after pre-emergence application (score 0-5) associated with O=C(Nc1ccc(-c2cncc(F)c2)nc1C(F)(F)F)OCc1ccccc1 [Compound B53]
## Result 1

Each recorded value in this set is attributed to patent US20210127673A1.
